- Tested on: PC-3 prostate
- MEASUREMENT DESCRIPTION: NCI tumour cell line growth inhibition, 48 h
ENDPOINT LABEL: TGI (µM)
Form entry: value (µM) — number only.

Examples from the recorded data:
Exercise: Write down the reported TGI of `O=C1c2cccnc2C(=O)c2c1c(C(=O)OCCCN1CCOCC1)c1ccccn21` , test system: PC-3 prostate.
Solution: 4.94

Exercise: State its TGI on PC-3 prostate: `O=C(N[C@@H]1CCCc2ccccc21)[C@H](CCC(=O)N1CCN(C2CCCCC2)CC1)N1C(=O)[C@@H](N2C(=O)OC[C@@H]2c2ccccc2)[C@H]1/C=C/c1ccccc1`
Solution: 8.35

Next compound, please.
Exercise: Request: TGI, test system PC-3 prostate, entry `O=c1c(Cc2ccc(Cl)cc2)nnc2sc(-c3ccc([N+](=O)[O-])cc3)nn12`
Solution: 47.2

Value source: PubChem BioAssay (NCI)
